TEST_DESCRIPTION: NCI Yeast Anticancer Drug Screen. Data for the cln2 rad14 strain (AID 165);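 also: 0% = growth equal to vehicle treated cultures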
CONDITIONS_USED: S. cerevisiae cln2 rad14 strain, at 50.0 µM, hits give high values
The panel holds about 79,000 compounds, 15% with a hit somewhere; the sample as a whole holds those more often.
Reported growth inhibition values for a set of molecules
State just the number; it will be interpreted in %.

Solved cases below.
CCCCN(CCCC)c1ccc(S(=O)(=O)c2ccc(N(CCCC)CCCC)cc2)cc1: 30.4
Cc1ccc(S(=O)(=O)OCC2C(c3ccccc3)CCC(c3ccccc3)C2COS(=O)(=O)c2ccc(C)cc2)cc1 (stereo unspecified): -28.6
COc1ccc(/C=N/NC(=O)c2cnc3[nH]c(=O)n(C)c(=O)c3c2)cc1: 5.45
CCc1cc2c(oc3c4ccccc4ccc23)c(=O)[nH]1: -14.3
O=C(O)c1ccc(SSc2ccc(C(=O)O)cn2)nc1: -8.5

Query: Endpoint output: growth inhibition of O=c1c(Cc2ccccc2)coc2ccccc12 . Value?
Reply: -14.2

---

TEST_DESCRIPTION: NCI Yeast Anticancer Drug Screen. Data for the sgs1 mgt1 strain (AID 161);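 also: 0% = growth of cultures given vehicle only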
CONDITIONS_USED: S. cerevisiae sgs1 mgt1 strain, at 50.0 µM, hits give high values
About 79,000 compounds went through this panel and 15% of them were active in at least one assay; those are over-represented in the sample as a whole. Calls of active or inactive are those of the source. Rule as the data show it: active = growth inhibition above about 70%; inactive = the rest.
Catalogue of molecules with associated growth inhibition

Field: example entries. Status: answers known.
COc1ccc(Nc2cccc(Cl)c2)cc1: 96.5% (active)
CC(=O)Nc1cccc(/C=C/C=C/c2cccc([N+](=O)[O-])c2)c1: 93.5% (active)
O=C(NCCCCCCCCCCNC(=O)C12CC3CC(CC(C3)C1)C2)C12CC3CC(CC(C3)C1)C2: 2.3% (inactive)
C=C1C(C2(C)C=CC(=O)OC3(C)COC(=O)CC32)C(OC=O)C(OC(=O)C(O)C(C)CC)C2(C)C(c3ccoc3)CC(OC(C)=O)C12O (stereo not given): -4.65% (inactive)

# next molecule below
Query: Name the reported growth inhibition value associated with the molecule CC(C)CCCC(C)C1CCC2C3CCC4Cc5c(c6ccccc6n5C)CC4(C)C3CCC12C (stereo not given)
Reply: -5.75% (inactive)

---

TEST_DESCRIPTION: NCI Yeast Anticancer Drug Screen. Data for the cln2 rad14 strain (AID 165);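 also: 0% = growth equal to vehicle treated cultures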
CONDITIONS_USED: S. cerevisiae cln2 rad14 strain, at 50.0 µM
This is part of a sample that, as a whole, favours compounds with a hit. Of some 79,000 tested, about 15% had one in any assay. Active and inactive are the calls of the source. No stated cut-off is given here; in the data, active means growth inhibition above about 70%; inactive means the rest.
Answer with one of the outcomes active, inactive

Examples with answers:
COc1ccc(OC)c(/C=C/c2cnnc3ccccc23)c1: inactive
O=C(Cc1ccccn1)c1cccnc1: inactive
CCCC(CCC)=C1C(=O)N=C(N)NC1=O: inactive
Cn1c(=O)c2[nH]c(SCc3ccccn3)nc2n(C)c1=S: inactive

Query: Record request — test call for NNS(=O)(=O)c1ccc(Oc2ccc(S(=O)(=O)NN)cc2)cc1
Reply: inactive

Query: Entry C=CCOc1ccccc1C please
Reply: inactive

Query: Also check CCOC(=O)C(=O)Nc1ccccc1CC
Reply: inactive

Query: Continue with CN(C)CCC(/C=C/c1ccccc1)=N\Nc1ccccc1
Reply: inactive

Query: Now the compound CCCCCCCCN(CCCCCCCC)CC(O)c1ccc2c(c1)Sc1ccccc1O2 (configuration not stated)
Reply: active

Query: Same question, CC(C)(C)C1CCC(C(=O)O)CC1 (configuration not stated) this time
Reply: inactive

Query: Continue with C=CCN(CC=C)CCNc1cc(C)nc(/N=C(\N)Nc2ccc(Cl)c(Cl)c2)n1
Reply: active

Query: // repeat for Cc1ccc(-c2oc(-c3ccc(C)cc3)c3cc(C)c(C)cc23)cc1 and report
Reply: inactive
